Value source: ChEMBL document CHEMBL1201862

Each record here notes measured GI50.
System: HCC 2998
Test: NCI tumour cell line growth inhibition, 48 h
The source made the active and inactive calls. No stated cut-off is given here; in the data, active = GI50 up to about 1.1 µM and inactive = higher.
Quantity kind: GI50

Cc1ccc(C)c(NC(=O)CC2C(=O)Nc3ccccc3S2(=O)=O)c1 (stereo not given) | 77.8 µM (inactive)
CCN(C(C)=O)c1cnc(/C=N/NC(N)=S)c2ccccc12 | 11 µM (inactive)
N#CCCN(CCC#N)c1ccc(/C=C2\N=C(c3cc([N+](=O)[O-])ccc3Cl)N(S(=O)(=O)c3ccccc3)C2=O)cc1 | > 100 µM (inactive)
COc1ccc(-c2nc(SCC(=O)NNC(=S)Nc3ccccc3)[nH]c2-c2ccc(OC)cc2)cc1 | 14 µM (inactive)
N=c1oc2ccccc2cc1-c1nc2ccccc2[nH]1 | 71.3 µM (inactive)
Nn1c(-c2ccccc2)n[nH]c1=O | > 100 µM (inactive)
O=c1[nH]c(=O)n(C2CC(O)C(CO)O2)c2nc3ccc4ccccc4c3nc12 (stereo not given) | 59 µM (inactive)
CN(C)CCCNC(=O)c1c(-c2cccnc2)cnc2ccccc12 | > 100 µM (inactive)
COC(=O)C1(C(=O)OC)CC(=O)c2cc3c(cc2-c2c(cc(OC)c(OC)c2OC)C1)OCO3 | > 211 µM (inactive)
CC(C)(C=O)CC(C#N)/C(=N\NC(N)=O)C(=O)Nc1ccccc1C(N)=O (stereo not given) | > 100 µM (inactive)

---

System: SF-539
Assay: NCI tumour cell line growth inhibition, 48 h
Active and inactive are the calls of the source. Rule as the data show it: active = GI50 up to about 1.1 µM and inactive = higher.
Classes used: active, inactive

COc1ccc2[nH]c3c(c2c1)CCN(C)CC3 | inactive
Cc1cc(C)c2c(c1)CC1(Cc3c(C)ccc(C)c3C1=O)C2=O (stereo not given) | inactive
CCCNCC(=O)O[C@]1(CC)C(=O)OCc2c1cc1n(c2=O)Cc2cc3ccccc3nc2-1 | active
CC12CCC3c4cc(Br)c(O)c(Br)c4CCC3C1CCC2O (stereo not given) | inactive
COC(=O)C(=O)C(C(=O)C(=O)Nc1nnc(S)[nH]1)c1nc2ccc([N+](=O)[O-])cc2nc1O (stereo not given) | inactive
CC12CCC(C1)C(C)(C)C2OC(=O)c1ccccc1N (stereo not given) | inactive
CCN(C(C)=O)c1cnc(/C=N/NC(N)=S)c2ccccc12 | inactive
CCCCCCCCCCCCCCCCP(=O)(O)OCC(N)C(=O)O (stereo not given) | inactive
CCCCN(CCCC)CCCCNc1c(C)cnc2cc(Cl)ccc12 | inactive
CC(C)(C)OC(=O)N1C(c2cccnc2)=CC[C@H]2C3CC=C(c4cccnc4)[C@@]3(C)CC[C@@H]21 (stereo not given in full) | inactive

---

System: OVCAR-5
Experiment: NCI tumour cell line growth inhibition, 48 h
Activity calls are given as the source filed them. Cut-off read from the data, not from the text of the source: active = GI50 up to about 1.1 µM and inactive = higher.
Each record here notes measured GI50.
Quantity kind: GI50

O=C(/C=C/C=C/c1ccccc1)c1ccccc1 | 14.7 µM (inactive)
O=C1OC(=O)C2C1C1(c3ccccc3)OC2(c2ccccc2)c2c(Br)c(Br)c(Br)c(Br)c21 (configuration not stated) | > 100 µM (inactive)
COc1ccc(C2c3cc4c(cc3OC(NNC(N)=O)C2C)OCO4)cc1 (configuration not stated) | 26.6 µM (inactive)
CCn1ncc(Oc2c(Cl)cc(N)cc2Cl)c(Cl)c1=O | 43.9 µM (inactive)
CCCCNC(=S)Nn1c(-c2ccccc2)nc2ccccc2c1=O | > 100 µM (inactive)
C1=CC=C2NCCCCCCC/N=C3/C=CC=CC=C3NCCCCCCC/N=C\2C=C1 | > 100 µM (inactive)
CC1=NNC(=O)C1C1C(=O)NN=C(c2c[nH]c3ccccc23)C1Br (configuration not stated) | > 100 µM (inactive)
Nc1cccc2nsnc12 | > 100 µM (inactive)
O=C1C2c3[nH]c4ccccc4c3C3CCCCCC3C2C(=O)N1c1ccccc1 (configuration not stated) | > 100 µM (inactive)
COC(C/C(=C/CO[Si](C(C)C)(C(C)C)C(C)C)C(=O)N(C(=O)OC(C)(C)C)c1ccccc1I)OC | 36.1 µM (inactive)
COc1cc(C2SCC(=O)N2Cc2ccccc2)cc(OC)c1OC (configuration not stated) | > 100 µM (inactive)
CC12CCC3c4cc(Br)c(O)c(Br)c4CCC3C1CCC2O (configuration not stated) | 25.7 µM (inactive)
CC(C)(CO)NC(=O)c1cccc(C(=O)NC(C)(C)CO)c1Br | > 100 µM (inactive)
CC1(C)C(=O)/C=C\C(=O)C(C)(C)C2=CC=C(O2)C(C)(C)C(=O)/C=C\C(=O)C(C)(C)C2=CC=C1O2 | > 100 µM (inactive)
CCOC(=O)CON=c1c2ccccc2ccc2ccccc12 | > 100 µM (inactive)
CC(C)(C)OC(=O)N(CCNS(=O)(=O)c1cccc2cnccc12)CCC(=O)ON1C(=O)CCC1=O | > 100 µM (inactive)
NCCCn1c(Cl)nc2ccccc21 | > 100 µM (inactive)
O=C1Cc2c([nH]c3c(Br)cccc23)-c2ccccc2N1 | > 100 µM (inactive)
O[C@H]1[C@H]2c3cc4c(cc3CN3CCC(=C[C@@H]1O)[C@H]23)OCO4 [LYCORINE] | 2.5 µM (inactive)
O=C(Nc1nnc(-c2c(Cl)c(Cl)c(Cl)c(Cl)c2-c2nc3cc(C(=O)c4ccccc4)ccc3[nH]2)o1)c1ccc(Cl)cc1 | > 100 µM (inactive)
CC(=O)c1ccc2c(c1)oc(=O)n2CCN(C)C | > 100 µM (inactive)
COC(=O)c1cc2c3c(c(C(C)=O)c(OC)c2[nH]1)NCC3 | > 50 µM (inactive)

---

Tested on: RPMI-8226
Assay: NCI tumour cell line growth inhibition, 48 h
The source made the active and inactive calls. No stated cut-off is given here; in the data, active = GI50 up to about 1.1 µM and inactive = higher. Peptide text beside a SMILES is read from it. * marks the point of attachment. OSu = O=C1CCC(=O)N1O*
Classes used: yes = active, no = inactive

Nc1nc(O)c2[nH]nnc2n1 | yes
O=C(O)c1cc(=O)c2[nH]c3ccccc3c2s1 | no
CC1=Nc2ccccc2C1C(Cc1ccccc1N)c1c(C)[nH]c2ccccc12 (centres undefined) | no
Clc1ccc2nc(-c3ccccc3)nc(Cl)c2c1 | no
O=C1c2ccccc2C(=O)c2c(O)c(NCCNCCO)cc(O)c21 | no
CCCC(=O)Nc1cc(/C=C/C(=O)N2CC(CCl)c3c2cc([N+](=O)[O-])c2ccccc32)n(C)c1 (centres undefined) | yes
N#Cc1ccc(OCc2ccc3nc(-c4ccccc4)c(Cl)nc3c2)cc1 | no
CCOC(=O)CC[C@H](N)C(=O)N[C@H](Cc1ccc(N(CCCl)CCCl)cc1)C(=O)OCC | no
NCCCCC(NC(=O)C(N)Cc1ccc(O)cc1)C(=O)NC(CCCCN)C(=O)NC(CCCCN)C(=O)ON1C(=O)CCC1=O (centres undefined) (H-YKKK-OSu; configuration not given here) | no

---

System: SF-268
Assay: NCI tumour cell line growth inhibition, 48 h
Where a name gives a salt, the structure may show the parent alone. Calls of active or inactive are those of the source. No stated cut-off is given here; in the data, active = GI50 up to about 1.1 µM and inactive = higher. Starred links: 1 amine or outer side, 2 acyl side, 3 side chain; linkers in the order of their positions; H or OH if unused. Positions of bridges follow the written chain, without caps; N, C: chain ends. Non-standard residues stand in square brackets, D forms with d. Residues, ends and D or L forms follow the SMILES beside them. ξ: configuration not given here. X37 = CC[C@H](C)[C@@H](N[*:1])[C@@H](O)CC(=O)O[C@H](C(=O)[C@H](C)C(=O)[*:2])C(C)C; NMeY = CN[C@@H](Cc1ccc(O)cc1)C(=O)O; dNMeL = CN[C@H](CC(C)C)C(=O)O; ξΔPro = O=C(O)C1C=CCN1
Classes used: active, inactive

COc1ccc2c(c1)CCN1CCc3ccccc3CC21 (stereo not given) | inactive
CCCCN(CCCC)CCCCNc1c(C)cnc2cc(Cl)ccc12 | inactive
COC(=O)C(=O)C(C(=O)C(=O)Nc1ccccc1C(N)=O)c1nc2ccc(Cl)cc2nc1O (stereo not given) | inactive
Cc1nc2[nH]ccn2c(=O)c1CCO | inactive
O=C1CC(c2ccccc2)C2(C(=O)NC(=S)NC2=O)C(c2ccccc2)C1 (stereo not given) | inactive
NC(=O)c1nnc2ccc(F)cc2c1N | inactive
CCOC(=O)C(C#N)C1=CC(=O)C(=O)c2ccc(OC)cc21 (stereo not given) | inactive
Cc1cc(C)c2c(c1)CC1(Cc3c(C)ccc(C)c3C1=O)C2=O (stereo not given) | inactive
CC[C@H](C)[C@H]1NC(=O)[C@@H](NC(=O)[C@@H](CC(C)C)N(C)C(=O)C2C=CCN2)[C@@H](C)OC(=O)[C@H](Cc2ccc(OC)cc2)N(C)C(=O)[C@@H]2CCCN2C(=O)[C@H](CC(C)C)NC(=O)[C@@H](C)C(=O)[C@H](C(C)C)OC(=O)C[C@@H]1O (stereo not given in full) (H-[ξΔPro][dNMeL]T[X37]LP[NMeY](Me); ester 3-C) | active
Cc1ccc(NCC(=O)N2CC(=O)Nc3ccccc32)cc1 | inactive
CCC1(CCSC(=N)N)C(=O)NC(=O)NC1=O | inactive
CCS(CC)(CC)CC1CCCC2=CCC(P(=O)(c3ccccc3)c3ccccc3)CC21 (stereo not given) | inactive
CCOC(=O)Oc1ccc2c(c1)c(=O)c1c(NCCCN(CC)CC)ccc3nnn2c31 | inactive
COc1ccc2c(=O)cc(-c3ccc(OC)c(OC)c3OC)oc2c1 | inactive
CC[C@@]1(O)C(=O)OCc2c1cc1n(c2=O)Cc2c-1nc1ccccc1c2/C=N\NC(=O)C(N)Cc1c[nH]cn1 (stereo not given in full) | active
COC(=O)c1cc2c3c(c(C(C)=O)c(OC)c2[nH]1)NCC3 | inactive
CCC1CN2CCc3cc(OC)c(OC)cc3C2CC1CC1c2cc(OC)c(OC)cc2CCN1C(=O)C(N)Cc1ccccc1.[O-][Cl+3]([O-])([O-])O (stereo not given) | inactive
CCCN1C(=O)CN(S(=O)(=O)c2ccc(Cl)cc2)C1=O | inactive
CC1(C)O[C@H]2OC(CO)C(OS(C)(=O)=O)[C@H]2O1 (stereo not given in full) | inactive
CCOC(=O)C(CC/C=C\c1ccccc1)N1CCC[C@H]1C(=O)OC (stereo not given in full) | inactive
CNCc1cc(OC)ccc1-c1ccc(OC)c(OC)c1OC | inactive
C[N+](C)([O-])CCCNc1ccnc2cccc([N+](=O)[O-])c12 | inactive
O=C1c2ccccc2C(=O)c2c1ccc1conc21 | inactive
CCCNCC(=O)O[C@]1(CC)C(=O)OCc2c1cc1n(c2=O)Cc2cc3ccccc3nc2-1 | active
N#CCCN(CCC#N)c1ccc(/C=C2\N=C(c3cc([N+](=O)[O-])ccc3Cl)N(S(=O)(=O)c3ccccc3)C2=O)cc1 | inactive
N=c1ccn2c(n1)O[C@H]1[C@H](O)[C@@H](CO)O[C@H]12 [ANCITABINE HYDROCHLORIDE] | inactive
O=C(O)c1cc(=O)c2[nH]c3ccccc3c2s1 | inactive
COc1cc(Cl)cc(O)c(=O)c1OC | inactive
NCCCn1c(Cl)nc2ccccc21 | inactive
O=C1[C@@H]2[C@@H](c3ccccc3)[C@]2(Cl)C(=O)[C@H]2[C@H](c3ccccc3)[C@@]12Cl | inactive
Cn1c2ccccc2c(=O)c2c([N+](=O)[O-])ccc(NCCN)c21 | inactive
COc1ccc2cccc(C(=N)c3ccc(C)c4c3CCC4)c2c1 | inactive
Cc1nc2c(nc1C)C(=O)c1cc(O)ccc1C2=O | inactive
O=C(O)CN1CCN(CC(=O)O)CCN(CC(=O)O)CCN(CC(=O)O)CC1 [TETRAXETAN] | inactive
O[C@H]1[C@H]2c3cc4c(cc3CN3CCC(=C[C@@H]1O)[C@H]23)OCO4 [LYCORINE] | active
COC1=CC(=O)C2C(C1=O)C(c1ccc(OC)c(OC)c1)[C@H]2C (stereo not given in full) | inactive
Cc1ccc(-n2c3nc(=O)n(C)c(=O)c-3nc3ccccc32)cc1 | inactive
NC(=O)C(=CN1CC(=O)NC1=S)C(N)=O | inactive
CC(=O)NC(=O)/N=C1\NCCC(=O)N1CCc1c[nH]c2ccccc12 | inactive
CCc1ccc(Nc2cc(=O)[nH]c(SCc3ccccc3)n2)cc1 | inactive
